Examples of binders with documented ratio [(IC50/nM) high HSA]/[(IC50/nM) low HSA] follow.
Target: T1, human GLP-1 receptor (human, UniProt P43220 24-463)
T1 construct: whole, on cells; also called hGLP-1
Test: SPA displacement of [125I]-GLP-1(7-36)NH2 from human GLP-1 receptor membranes; IC50 at 2.0% HSA divided by IC50 at 0.005% HSA
Method: 25 ul (microliter) of test compounds are added to Optiplate. HSA ("high albumin" experiment containing 2% HSA), or buffer ("low albumin" experiment containing 0.005% HSA), was added (50 ul). 5-10 ug protein/sample was added (50 ul) corresponding to 0.1-0.2 mg protein/ml (to be preferably optimised for each membrane preparation). […] The plates were centrifuged (1500 rpm, 10 min) and counted in Topcounter.
*1 amine or outer side, *2 acyl side, *3 side chain or, on linkers, in order; H or OH if unused. Where no end group is shown, it is not given here. Side-chain parts run from the residue outwards. [ ]: non-standard residue; d: D form. The star is where a group is joined. Decanoyl(10-(4-HOOC-PhO)) = O=C(O)c1ccc(OCCCCCCCCCC(=O)*)cc1; γGlu = O=C(O)[C@H](CCC(=O)[*:2])N[*:1]; Desaminohistidyl = O=C(CCc1c[nH]cn1)*; εLys = N[C@@H](CCCCN[*:1])C(=O)[*:2]; AEEA = NCCOCCOCC(=O)O; Aib = CC(C)(N)C(=O)O

[Desaminohistidyl]AEGTFTSDVSK([AEEA-εLys-AEEA-γGlu-Decanoyl(10-(4-HOOC-PhO))])YLEEQAVREFIAK([AEEA-εLys-AEEA-γGlu-Decanoyl(10-(4-HOOC-PhO))])LVRGRG (Double-acylated GLP-1 analogue; positions are counted with residue 1 of the entry as no)	> 10

Now consider the entry below.
Q: Dear colleague, I am looking for the recorded ratio [(IC50/nM) high HSA]/[(IC50/nM) low HSA] of the following binder: H[Aib]EGTFTSDVSK([εLys-εLys-γGlu-Decanoyl(10-(4-HOOC-PhO))])QLEEQAAK([εLys-εLys-γGlu-Decanoyl(10-(4-HOOC-PhO))])EFIAWLVQGRG
Ans: > 10

Values compiled from patent US9006178.
